- Tested on: Escherichia coli
- Protocol Summary: Antibacterial activity against Escherichia coli ATCC 25922 assessed as bacterial growth inhibition by CLSI protocol agar-based assay
- Assay type: functional

Structure Smiles: O=C(NC12CCC(CCc3c(F)cnc4ccc(=O)n(CCO)c34)(CC1)OC2)c1cc2c(cn1)OCCO2
MIC: > 32 µg/mL
//
Structure Smiles: O=c1ccc2ncc(F)c(CCC34CCC(NCc5cnc(-c6ccsc6)s5)(CC3)CO4)c2n1CCO
MIC: > 32 µg/mL
//
Structure Smiles: O=C1COc2ccc(CNC34CCC(CCc5c(F)cnc6ccc(=O)n(CCN7CCOCC7)c56)(CC3)OC4)nc2N1
MIC: > 16 µg/mL

* * *

- Tested on: Pseudomonas aeruginosa
- Protocol Summary: Antibacterial activity against Pseudomonas aeruginosa PAO1 assessed as bacterial growth inhibition by CLSI protocol agar-based assay
- Assay type: functional

Structure Smiles: O=c1ccc2ncc(F)c(CCC34CCC(NCc5cnc(C6CCCCC6)s5)(CC3)CO4)c2n1CCO
MIC: > 16 µg/mL
//
Structure Smiles: C[C@@H]1CCc2cc(CNC34CCC(CCc5c(F)cnc6ccc(=O)n(CCO)c56)(CC3)OC4)ncc2O1
MIC: > 64 µg/mL
//
Structure Smiles: COc1ccc2nc(CNC34CCC(CCc5c(F)cnc6ccc(=O)n(CCO)c56)(CC3)OC4)c(F)cc2n1
MIC: > 16 µg/mL
//
Structure Smiles: O=c1ccc2ncc(F)c(CCC34CCC(NCc5cn(-c6ncccn6)cn5)(CC3)CO4)c2n1CCO
MIC: > 128 µg/mL
//
Structure Smiles: O=c1ccc2ncc(F)c(CCC34CCC(NCc5cnc(-c6ccsc6)s5)(CC3)CO4)c2n1CCO
MIC: > 32 µg/mL
//
Structure Smiles: O=c1ccc2ncc(F)c(CCC34CCC(NCc5cc6c(cn5)OCCO6)(CC3)CO4)c2n1CCO
MIC: > 16 µg/mL

The reported measurements were obtained from ChEMBL document CHEMBL5223095.
